- System Name: T1, full-length human CD86 on HEK293 cells (human, UniProt P42081 24-329)
- T1 sequence: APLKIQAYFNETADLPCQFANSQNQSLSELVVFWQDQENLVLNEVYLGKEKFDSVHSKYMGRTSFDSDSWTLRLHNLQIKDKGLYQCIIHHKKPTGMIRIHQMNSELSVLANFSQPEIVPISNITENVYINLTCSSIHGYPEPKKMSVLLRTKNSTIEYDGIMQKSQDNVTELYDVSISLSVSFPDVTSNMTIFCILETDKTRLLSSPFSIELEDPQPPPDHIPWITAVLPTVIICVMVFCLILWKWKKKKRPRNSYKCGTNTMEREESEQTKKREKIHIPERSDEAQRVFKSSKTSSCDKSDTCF
- Test: cell-based or functional assay
Readout: Mean IC50 (nM), CD4+ T cell proliferation
Write the value in nM as a bare number.

Qu. For the binder D3-56-IgG2 (Fc fusion) MHVAQPAVVLASSRGIASFVCEYASPGKANEVRVTVLRQADSQVTEVCAMTYMKENELTFLDDPSCTGTFSGNQVNLTIQGLRAMDTGLYICKVELMYPPPYYLGIGNGTQIYVIDPEPCPDSDERKCCVECPPCPAPPVAGPSVFLFPPKPKDTLMISRTPEVTCVVVDVSHEDPEVQFNWYVDGVEVHNAKTKPREEQFNSTFRVVSVLTVVHQDWLNGKEYKCKVSNKGLPAPIEKTISKTKGQPREPQVYTLPPSREEMTKNQVSLTCLVKGFYPSDIAVEWESNGQPENNYKTTPPMLDSDGSFFLYSKLTVDKSRWQQGNVFSCSVMHEALHNHYTQKSLSLSPG , what Mean IC50 (nM), CD4+ T cell proliferation is on record?
Ans. 0.04
